Conditions: in methanol, 318.15 K
Reported Endpoint: solubility (mole fraction)

Smiles Entry: O=[N+]([O-])/N=C1\NCCN1Cc1ccc(Cl)nc1
Result Value: 0.00339

====

Settings: in methanol, 283.15 K
Reported Endpoint: solubility (mole fraction)

Smiles Entry: O=[N+]([O-])/N=C1\NCCN1Cc1ccc(Cl)nc1
Result Value: 0.000689

====

Details: in n-propanol, 288.15 K

Smiles Entry: O=[N+]([O-])/N=C1\NCCN1Cc1ccc(Cl)nc1
solubility (mole fraction): 0.000362

====

Details: in methanol, 293.15 K
Reported Endpoint: solubility (mole fraction)

Smiles Entry: O=[N+]([O-])/N=C1\NCCN1Cc1ccc(Cl)nc1
Result Value: 0.00112

====

Conditions: in n-propanol, 303.15 K
Reported Endpoint: solubility (mole fraction)

Smiles Entry: O=[N+]([O-])/N=C1\NCCN1Cc1ccc(Cl)nc1
Reported Endpoint: solubility (mole fraction)
Result Value: 0.000837

====

Settings: in ethanol, 298.15 K
Reported Endpoint: solubility (mole fraction)

Smiles Entry: O=[N+]([O-])/N=C1\NCCN1Cc1ccc(Cl)nc1
Result Value: 0.000699

====

Conditions: in n-propanol, 313.15 K

Smiles Entry: O=[N+]([O-])/N=C1\NCCN1Cc1ccc(Cl)nc1
solubility (mole fraction): 0.0014

====

Conditions: in methanol, 323.15 K

Smiles Entry: O=[N+]([O-])/N=C1\NCCN1Cc1ccc(Cl)nc1
solubility (mole fraction): 0.0041

====

Details: in ethanol, 303.15 K
Reported Endpoint: solubility (mole fraction)

Smiles Entry: O=[N+]([O-])/N=C1\NCCN1Cc1ccc(Cl)nc1
Reported Endpoint: solubility (mole fraction)
Result Value: 0.000895

====

Details: in acetone, 293.15 K
Reported Endpoint: solubility (mole fraction)

Smiles Entry: O=[N+]([O-])/N=C1\NCCN1Cc1ccc(Cl)nc1
Result Value: 0.012

====

Settings: in n-propanol, 308.15 K
Reported Endpoint: solubility (mole fraction)

Smiles Entry: O=[N+]([O-])/N=C1\NCCN1Cc1ccc(Cl)nc1
Result Value: 0.00109

====

Settings: in n-propanol, 283.15 K
Reported Endpoint: solubility (mole fraction)

Smiles Entry: O=[N+]([O-])/N=C1\NCCN1Cc1ccc(Cl)nc1
Result Value: 0.000266

====

Conditions: in ethanol, 308.15 K

Smiles Entry: O=[N+]([O-])/N=C1\NCCN1Cc1ccc(Cl)nc1
solubility (mole fraction): 0.00115

====

Details: in water, 283.15 K
Reported Endpoint: solubility (mole fraction)

Smiles Entry: O=[N+]([O-])/N=C1\NCCN1Cc1ccc(Cl)nc1
Result Value: 6.79e-06

====

Conditions: in methanol, 308.15 K

Smiles Entry: O=[N+]([O-])/N=C1\NCCN1Cc1ccc(Cl)nc1
solubility (mole fraction): 0.00221

====

Settings: in acetone, 283.15 K

Smiles Entry: O=[N+]([O-])/N=C1\NCCN1Cc1ccc(Cl)nc1
solubility (mole fraction): 0.00862

====

Conditions: in acetone, 298.15 K

Smiles Entry: O=[N+]([O-])/N=C1\NCCN1Cc1ccc(Cl)nc1
solubility (mole fraction): 0.014

====

Settings: in ethanol, 323.15 K

Smiles Entry: O=[N+]([O-])/N=C1\NCCN1Cc1ccc(Cl)nc1
solubility (mole fraction): 0.00238

====

Conditions: in ethanol, 313.15 K
Reported Endpoint: solubility (mole fraction)

Smiles Entry: O=[N+]([O-])/N=C1\NCCN1Cc1ccc(Cl)nc1
Reported Endpoint: solubility (mole fraction)
Result Value: 0.00148

====

Conditions: in ethanol, 283.15 K

Smiles Entry: O=[N+]([O-])/N=C1\NCCN1Cc1ccc(Cl)nc1
solubility (mole fraction): 0.000303

====

Details: in methanol, 303.15 K
Reported Endpoint: solubility (mole fraction)

Smiles Entry: O=[N+]([O-])/N=C1\NCCN1Cc1ccc(Cl)nc1
Result Value: 0.00177

====

Conditions: in n-propanol, 318.15 K
Reported Endpoint: solubility (mole fraction)

Smiles Entry: O=[N+]([O-])/N=C1\NCCN1Cc1ccc(Cl)nc1
Result Value: 0.00179

====

Conditions: in n-propanol, 298.15 K

Smiles Entry: O=[N+]([O-])/N=C1\NCCN1Cc1ccc(Cl)nc1
solubility (mole fraction): 0.00064

====

Conditions: in water, 308.15 K

Smiles Entry: O=[N+]([O-])/N=C1\NCCN1Cc1ccc(Cl)nc1
solubility (mole fraction): 3.43e-05

====

Settings: in methanol, 313.15 K

Smiles Entry: O=[N+]([O-])/N=C1\NCCN1Cc1ccc(Cl)nc1
solubility (mole fraction): 0.00274

====

Details: in methanol, 298.15 K
Reported Endpoint: solubility (mole fraction)

Smiles Entry: O=[N+]([O-])/N=C1\NCCN1Cc1ccc(Cl)nc1
Result Value: 0.00141

====

Settings: in n-propanol, 293.15 K

Smiles Entry: O=[N+]([O-])/N=C1\NCCN1Cc1ccc(Cl)nc1
solubility (mole fraction): 0.000475
